test: Plasma concentration (Cmax) of gabapentin in the rat
measurement_kind: Cmax

Any idea what its Cmax is? The compound is "NCC1(CC(=O)O)CCCCC1" 520 to 10500 ng/mL
